assayed.target: AMP-activated protein kinase, AMPK (Homo sapiens) (UniProt P54646+O43741+P54619+Q9UGJ0+Q9Y478+Q13131+Q9UGI9)
procedure.text: AMP-dependent Kinase enzyme assay. An in vitro enzyme assay that detects ADP turnover that is directly proportional to AMPK activity. This uses naive AMPK that is activated during the assay with MK-8722
Format: functional
Design: scale not given: direction of the effect not stated beside the values
condition.parameters: 30 µM
measured.quantity: Percent Effect (%)

compound	measured.result
COc1cc(CC(O)CO)c(OC)c2c1OCO2 (configuration not stated)	-12.3
COc1cccc(OCCNCc2c(C)nn(C)c2N(C)C)c1	-9.94
CCN1CCN(Cc2coc(-c3cccc(F)c3)n2)CC1	-12.3
CCc1ncc(CN(C)C(=O)Nc2cccnc2N2CCCC2)s1	-27.9
O=C(CN1CCCC1Cn1cncn1)NCCOc1cccc(F)c1 (configuration not stated)	-3.72
CCc1ncncc1C(=O)N1CCOC(c2nc(C)n[nH]2)C1 (configuration not stated)	7.38
Cn1cnc2c1C(COCC1CCOCC1)CN(C1CCOCC1)C2 (configuration not stated)	10.9
O=C(CCc1ccsc1)N1CCC(Cc2ccc(CO)cc2)C1 (configuration not stated)	-0.478
Cc1noc2ncc(C(=O)N3CCCC3c3cnn(C)c3)cc12 (configuration not stated)	-1.98
COCCC1(CO)CCCN(Cc2ccc(F)c(C)c2)C1 (configuration not stated)	-3.75
CCOCC1CN(Cc2ccoc2)Cc2nn(CC3CC3)cc21 (configuration not stated)	4.81
COCCCNC(=O)CN(C)C(=O)c1cc(C)ccc1N(C)C(C)C	-5.29
